# Tested on: melanotic melanoma B16
# protocol_summary: Melanotic Melanoma B16 test
# Type: in vivo, C57BC/6 mice
# experimental_parameters: 12 mg./kg. i.p., days 1 through 9
property: Median Survival Time (days)
Numbers only, in days.

Field: example entries. Status: answers known.
Cl.Cl.O=C1c2c(O)ccc(O)c2C(=O)c2c(NCCNCCO)ccc(NCCNCCO)c21; 11.0
O=C1C2=C(NCCN3CCCC3)CCC(NCCN3CCCC3)=C2C(=O)c2c(O)ccc(O)c21; 21.0
O=C1c2c(O)ccc(O)c2C(=O)c2c(NCCN3CCCC3)ccc(NCCN3CCCC3)c21; 22.0
CC(C)NCCNC1=C2C(=O)c3c(O)ccc(O)c3C(=O)C2=C(NCCNC(C)C)CC1; 30.0
CN(C)CCNc1ccc(NCCN(C)C)c2c1C(=O)c1c(O)ccc(O)c1C2=O; 28.5

Quick one: give me Median Survival Time for each item below, same order please.
1. CNCCNC1=C2C(=O)c3c(O)ccc(O)c3C(=O)C2=C(NCCNC)CC1
2. CN(C)CCNC1=C2C(=O)c3c(O)ccc(O)c3C(=O)C2=C(NCCN(C)C)CC1
3. NCCCCNC1=C2C(=O)c3c(O)ccc(O)c3C(=O)C2=C(NCCCCN)CC1

28.0
23.0
16.0

* * *

# Test system: lymphocytic leukemia P388
# protocol_summary: Lymphocytic leukemia P388 test (intraperitoneal administration)
# Type: in vivo, DBA/2 mice
# experimental_parameters: 200 mg./kg. i.p., days 1, 5 and 9
# Description: The animals used are DBA/2 mice all of one sex, weighing a minimum of 17 g. and all within a 3 gram weight range. There are 5 or 6 animals per test group. The tumor transplant is by intraperitoneal injection of 0.1 ml. of dilute ascitic fluid containing 10^6 cells of lymphocytic leukemia P388. […] The animals are weighed and survivors are recorded on a regular basis for 30 days. The median survival time and the ratio of survival time for treated (T)/control (C) animals are calculated.
Output Met for Median Survival Time not less than 20 days; output Not met otherwise.

NCCNCCNc1ccc(NCCNCCN)c2c1C(=O)c1c(O)ccc(O)c1C2=O; Not met
NCCCNC1=C2C(=O)c3c(O)ccc(O)c3C(=O)C2=C(NCCCN)CC1; Not met
O=C1c2c(O)ccc(O)c2C(=O)c2c(NCCNCCN3CCOCC3)ccc(NCCNCCN3CCOCC3)c21; Not met
CNCCNCCNC1=C2C(=O)c3c(O)ccc(O)c3C(=O)C2=C(NCCNCCNC)CC1; Not met
Cl.Cl.O=C1c2c(O)ccc(O)c2C(=O)c2c(NCCN(CCO)CCO)ccc(NCCN(CCO)CCO)c21; Met
O=C1C2=C(NCCN3CCCC3)CCC(NCCN3CCCC3)=C2C(=O)c2c(O)ccc(O)c21; Met
O=C1C2=C(NCCNCCCO)CCC(NCCNCCCO)=C2C(=O)c2c(O)ccc(O)c21; Not met
O=C1C2=C(NCCN3CCOCC3)CCC(NCCN3CCOCC3)=C2C(=O)c2c(O)ccc(O)c21; Not met
O=C1C2=C(NCCN(CCO)CCO)CCC(NCCN(CCO)CCO)=C2C(=O)c2c(O)ccc(O)c21; Not met
O=C1C2=C(NCCN3CCNCC3)CCC(NCCN3CCNCC3)=C2C(=O)c2c(O)ccc(O)c21; Not met

Textbook exercise: given the entry "O=C1c2c(O)ccc(O)c2C(=O)c2c(NCCN3CCOCC3)ccc(NCCN3CCOCC3)c21" , state whether its Median Survival Time is greater than or equal to 20 days.
Not met

Textbook exercise: given the entry "CCN(CC)CCNC1=C2C(=O)c3c(O)ccc(O)c3C(=O)C2=C(NCCN(CC)CC)CC1" , state whether its Median Survival Time is greater than or equal to 20 days.
Not met

Textbook exercise: given the entry "NCCCCNC1=C2C(=O)c3c(O)ccc(O)c3C(=O)C2=C(NCCCCN)CC1" , state whether its Median Survival Time is greater than or equal to 20 days.
Not met

Textbook exercise: given the entry "O=C1C2=C(NCCCNCCO)CCC(NCCCNCCO)=C2C(=O)c2c(O)ccc(O)c21" , state whether its Median Survival Time is greater than or equal to 20 days.
Met

Textbook exercise: given the entry CC(CNC1=C2C(=O)c3c(O)ccc(O)c3C(=O)C2=C(NCC(C)N(C)C)CC1)N(C)C (centres unmarked) , state whether its Median Survival Time is greater than or equal to 20 days.
Not met

Textbook exercise: given the entry CC(O)CNCCNC1=C2C(=O)c3c(O)ccc(O)c3C(=O)C2=C(NCCNCC(C)O)CC1 (centres unmarked) , state whether its Median Survival Time is greater than or equal to 20 days.
Not met
